MIC for assorted compounds
Tested on: Escherichia coli
Test: Antibacterial activity against Escherichia coli TOP10 harboring pOXA-58
Assay type: functional
Please respond with the number in µg/mL and leave the unit unwritten.

Compound: C[C@@H](O)[C@H]1C(=O)N2C(C(=O)O)=C(SCCNC=N)C[C@H]12 [IMIPENEM ANHYDROUS]
Display unit: µg/mL
MIC: 2

Lab note: "C[C@@H](O)[C@H]1C(=O)N2C(C(=O)O)=C(S[C@@H]3CN[C@H](C(=O)N(C)C)C3)[C@H](C)[C@H]12" gave MIC of 0.12

Item: "C[C@H]1[C@H](NC(=O)/C(=N\OC(C)(C)C(=O)O)c2csc(N)n2)C(=O)N1S(=O)(=O)O" | MIC: 0.06

The recorded MIC for CO/N=C(\C(=O)N[C@@H]1C(=O)N2C(C(=O)[O-])=C(C[N+]3(C)CCCC3)CS[C@H]12)c1csc(N)n1 [CEFEPIME] is 0.06

// sample "CC(C)(O/N=C(\C(=O)N[C@@H]1C(=O)N2C(C(=O)[O-])=C(C[n+]3ccccc3)CS[C@H]12)c1csc(N)n1)C(=O)O" , its MIC was 0.06
